TARGET UNDER TEST: 5-HT2A (Homo sapiens)
Sequence (P28223 whole entry): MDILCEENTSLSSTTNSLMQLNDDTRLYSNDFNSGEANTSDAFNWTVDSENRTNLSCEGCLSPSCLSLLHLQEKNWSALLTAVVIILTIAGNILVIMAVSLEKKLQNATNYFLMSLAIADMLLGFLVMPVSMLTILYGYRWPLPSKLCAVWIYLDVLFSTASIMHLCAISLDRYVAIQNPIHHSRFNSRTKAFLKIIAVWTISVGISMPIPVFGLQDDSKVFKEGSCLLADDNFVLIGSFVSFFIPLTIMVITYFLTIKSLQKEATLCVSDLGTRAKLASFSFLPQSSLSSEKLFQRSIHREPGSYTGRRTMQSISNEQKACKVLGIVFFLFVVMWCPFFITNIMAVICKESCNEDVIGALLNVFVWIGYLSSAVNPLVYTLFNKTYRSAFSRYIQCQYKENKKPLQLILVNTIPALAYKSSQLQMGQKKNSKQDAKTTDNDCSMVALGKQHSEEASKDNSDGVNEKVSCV
TEST DETAILS: Serotonin 5-HT2A in vitro cellular IPOne agonism assay
Type: cell-based
Set-up: host or cells: CHO-K1
CONDITIONS: CHO-K1 cells, IPOne HTRF, 60 min
ATTRIBUTE MEASURED: EC50

> print(dat)
                          smiles.input        meas.value
1       COc1ccc2c3c(n(C)c2n1)CCN(C)CC3    101 to 1000 nM
2  Cn1c2c(c3cc(Cl)cnc31)CCN(C1COC1)CC2  1000 to 10000 nM
3         CN1CCc2[nH]c3nc(Br)ccc3c2CC1    101 to 1000 nM
4   Cc1ccc2c3c(n(C)c2n1)CCN(C1COC1)CC3        > 10000 nM
